FYI, the data here is from patent US9636336B2.

Test system: Cch-evoked bronchoconstriction in rats
METHOD_SUMMARY: Bronchospasm, percentage of inhibition (Cch-induced bronchoconstriction, duration of action)
Assay type: in vivo, Male CD Sprague Dawley rats
PROTOCOL_CONDITIONS: inhibition of bronchospasm 16 h after intratracheal administration of the sub-maximal inhibition dose; rat
READOUT_TYPE: inhibition at 16 h (%)
Quick note: give the figure in %, leave out the unit.

Example entries begin here.
- COMPOUND: "COc1ccc([C@H](Cc2c(Cl)c[n+]([O-])cc2Cl)OC(=O)c2ccc(CNC(C(=O)OC[C@H]3CCN(C)C3)c3ccccc3)s2)cc1OC (stereo partly drawn) [Example 78]"
  U: "%"
  inhibition at 16 h: 51
- COMPOUND: "COc1ccc([C@H](Cc2c(Cl)c[n+]([O-])cc2Cl)OC(=O)c2ccc(CNC(C(=O)O[C@H]3CCN(C)C3)c3ccccc3)s2)cc1OC (single isomer, unassigned) [Example 78c, reference compound]"
  U: "%"
  inhibition at 16 h: 26
- COMPOUND: "COc1ccc([C@H](Cc2c(Cl)c[n+]([O-])cc2Cl)OC(=O)c2ccc(CNC(CO)(C(=O)OC3CCN(C)CC3)c3ccccc3)s2)cc1OC (single isomer, unassigned) [Example 105c, reference compound]"
  U: "%"
  inhibition at 16 h: 35

Consider the additional compound presented here.
Request: What value of inhibition at 16 h has been reported for the following compound? COc1ccc([C@H](Cc2c(Cl)c[n+]([O-])cc2Cl)OC(=O)c2ccc(CNC(CO)(C(=O)OCC3CCN(C)CC3)c3ccccc3)s2)cc1OC (stereo partly drawn) [Example 105]
Result: 88

---

TARGET_ENTITY: Human M3 receptor membranes (Homo sapiens (Human))
METHOD_SUMMARY: M3 Receptor radioligand binding assay
PROTOCOL_CONDITIONS: M3 Receptor radioligand binding assay; read-out: M3 IC50 activity
Recorded IC50 values for a group of molecules are listed next.

Request: For the record COc1ccc([C@H](Cc2c(Cl)c[n+]([O-])cc2Cl)OC(=O)c2ccc(CNC(C(=O)OCC3CCN(C(C)C)CC3)c3ccccc3)s2)cc1OC (single isomer, unassigned) [Example 42] , what value of IC50 is listed for Human M3 receptor membranes (Homo sapiens (Human))?
Result: 10 to 100 nM

Request: For the record COc1ccc(C(Cc2c(Cl)c[n+]([O-])cc2Cl)OC(=O)c2ccc(CNC(C(=O)OCC3CCN(C)CC3)c3ccccc3)s2)cc1OC1CCCC1 (centres unmarked) [Example 5] , what value of IC50 is listed for Human M3 receptor membranes (Homo sapiens (Human))?
Result: 1 to 10 nM

---

System: Cch-evoked bronchoconstriction in rats
METHOD_SUMMARY: Bronchospasm, percentage of inhibition (Cch-induced bronchoconstriction, duration of action)
Type: in vivo, Male CD Sprague Dawley rats
PROTOCOL_CONDITIONS: Dose producing about 80% (sub-maximal) inhibition of the bronchospasm after 1 h; intratracheal, rat
Excerpt: Protocol of Bronchospasm—Percentage of Inhibition Male CD Sprague Dawley rats (220-250 g) were purchased from Charles River Laboratories Italy (Calco, Lecco). […] Systemic blood pressure and changes in airway resistance were monitored with a digital pressure transducer connected to a bridge amplifier (PowerLab; Ugo Basile, Italy) and recorded using Chart 5 software (Ugo Basile, Italy). […]
READOUT_TYPE: sub-maximal inhibition Dose

- COMPOUND: "COc1ccc([C@H](Cc2c(Cl)c[n+]([O-])cc2Cl)OC(=O)c2ccc(CNC(CO)(C(=O)OC3CCN(C)CC3)c3ccccc3)s2)cc1OC (single isomer, unassigned) [Example 105c, reference compound]"
  READOUT_TYPE: "sub-maximal inhibition Dose"
  VALUE_REPORTED: "10 nmol/kg"

Request: What value of sub-maximal inhibition Dose has been reported for the following compound? COc1ccc([C@H](Cc2c(Cl)c[n+]([O-])cc2Cl)OC(=O)c2ccc(CNC(C(=O)O[C@H]3CCN(C)C3)c3ccccc3)s2)cc1OC (single isomer, unassigned) [Example 78c, reference compound]
Result: 100 nmol/kg

Request: What value of sub-maximal inhibition Dose has been reported for the following compound? COc1ccc([C@H](Cc2c(Cl)c[n+]([O-])cc2Cl)OC(=O)c2ccc(CNC(C(=O)OCC3CCN(C)CC3)c3ccccc3)s2)cc1OC (stereo partly drawn)
Result: 10 nmol/kg

Request: What value of sub-maximal inhibition Dose has been reported for the following compound? COc1ccc([C@H](Cc2c(Cl)c[n+]([O-])cc2Cl)OC(=O)c2ccc(CNC(CO)(C(=O)OCC3CCN(C)CC3)c3ccccc3)s2)cc1OC (stereo partly drawn)
Result: 30 nmol/kg

Request: What value of sub-maximal inhibition Dose has been reported for the following compound? COc1ccc([C@H](Cc2c(Cl)c[n+]([O-])cc2Cl)OC(=O)c2ccc(CNC(C(=O)OC[C@H]3CCN(C)C3)c3ccccc3)s2)cc1OC (stereo partly drawn)
Result: 30 nmol/kg

Request: What value of sub-maximal inhibition Dose has been reported for the following compound? COc1ccc([C@H](Cc2c(Cl)c[n+]([O-])cc2Cl)OC(=O)c2ccc(CNC(C(=O)OC3CCN(C)CC3)c3ccccc3)s2)cc1OC (single isomer, unassigned) [Example 87c, reference compound]
Result: 30 nmol/kg

---

TARGET_ENTITY: Human M3 receptor membranes (Homo sapiens (Human), UniProt P20309)
Sequence (P20309 whole entry): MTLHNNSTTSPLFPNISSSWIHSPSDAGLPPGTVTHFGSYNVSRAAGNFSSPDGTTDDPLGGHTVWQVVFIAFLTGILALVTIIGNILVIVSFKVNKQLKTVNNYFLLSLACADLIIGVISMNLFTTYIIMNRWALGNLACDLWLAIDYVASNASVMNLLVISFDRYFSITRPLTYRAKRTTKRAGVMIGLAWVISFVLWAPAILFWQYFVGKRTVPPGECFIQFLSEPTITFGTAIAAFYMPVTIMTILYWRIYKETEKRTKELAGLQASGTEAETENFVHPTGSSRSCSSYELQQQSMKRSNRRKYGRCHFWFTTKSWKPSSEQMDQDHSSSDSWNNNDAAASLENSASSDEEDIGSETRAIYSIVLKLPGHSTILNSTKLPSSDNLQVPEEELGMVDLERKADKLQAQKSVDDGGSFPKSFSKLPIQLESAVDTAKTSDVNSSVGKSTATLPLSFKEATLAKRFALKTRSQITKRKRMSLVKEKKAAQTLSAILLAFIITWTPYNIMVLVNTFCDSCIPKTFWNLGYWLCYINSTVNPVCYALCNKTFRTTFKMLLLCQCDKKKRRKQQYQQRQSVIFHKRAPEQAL
METHOD_SUMMARY: M3 Receptor radioligand binding assay
PROTOCOL_CONDITIONS: M3 Receptor radioligand binding assay; read-out: M3 IC50 activity
READOUT_TYPE: IC50

- MOLECULE: "COc1ccc([C@H](Cc2c(Cl)c[n+]([O-])cc2Cl)OC(=O)c2ccc(CNC(C(=O)OC[C@@H]3CN(C)CCN3C)c3ccccc3)s2)cc1OC (stereo partly drawn) [Example 32]"
  VALUE_REPORTED: "0.01 to 0.1 µM"
- MOLECULE: "COc1ccc(C(Cc2c(Cl)c[n+]([O-])cc2Cl)OC(=O)c2ccc(CNC(C(=O)OCC3CCN(C)CC3)c3cccc(O)c3)s2)cc1OCC1CC1 (stereo not drawn) [Example 47]"
  VALUE_REPORTED: "0.001 to 0.01 µM"

Request: What value of IC50 has been reported for the following molecule? COc1ccc([C@H](Cc2c(Cl)c[n+]([O-])cc2Cl)OC(=O)c2ccc(CNC(C(=O)OCC3CCCCN3C)c3ccccc3)s2)cc1OC (stereo partly drawn) [Example 31]
Result: 0.01 to 0.1 µM

---

TARGET_ENTITY: Human M3 receptor membranes (Homo sapiens (Human))
METHOD_SUMMARY: M3 Receptor radioligand binding assay
PROTOCOL_CONDITIONS: M3 Receptor radioligand binding assay; read-out: M3 IC50 activity
Recorded IC50 values for a group of compounds are listed next.

Example entries begin here.
- COMPOUND: "COc1ccc([C@H](Cc2c(Cl)c[n+]([O-])cc2Cl)OC(=O)c2ccc(CNC(C(=O)OCC3CCN(C)CC3)c3cccc(O)c3)s2)cc1OC (stereo partly drawn)"
  TARGET_ENTITY: "Human M3 receptor membranes (Homo sapiens (Human))"
  IC50: "1 to 10 nM"
- COMPOUND: "COc1ccc([C@H](Cc2c(Cl)c[n+]([O-])cc2Cl)OC(=O)c2ccc(CNC(C(=O)OCC3CCN(C)CC3)C3CCCCC3)s2)cc1OC (stereo partly drawn)"
  TARGET_ENTITY: "Human M3 receptor membranes (Homo sapiens (Human))"
  IC50: "10 to 100 nM"

Consider the additional compound presented here.
Request: What value of IC50 has been reported for the following compound? COc1ccc([C@H](Cc2c(Cl)c[n+]([O-])cc2Cl)OC(=O)c2ccc(CNC(CO)(C(=O)OCC3CCN(C)CC3)c3cccs3)s2)cc1OC (mixture of isomers)
Result: 1 to 10 nM
